B1: Caulobacter ParB omega fusion; a variant is named by its letters at X, in order, B8GW30 (parent)
chain: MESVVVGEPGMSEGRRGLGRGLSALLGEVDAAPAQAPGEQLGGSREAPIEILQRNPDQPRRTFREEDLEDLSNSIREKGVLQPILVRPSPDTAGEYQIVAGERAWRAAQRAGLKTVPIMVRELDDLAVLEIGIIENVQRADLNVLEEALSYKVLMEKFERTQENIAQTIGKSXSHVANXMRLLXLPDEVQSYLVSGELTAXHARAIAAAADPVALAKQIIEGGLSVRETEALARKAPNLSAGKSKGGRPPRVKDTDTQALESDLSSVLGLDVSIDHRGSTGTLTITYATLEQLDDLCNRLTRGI

- Variants of: B1
- protocolText: one-hybrid fitness for binding NBS DNA (the Noc-binding site; scaled: cognate 1, non-cognate 0); higher = stronger binding
- particulars: with NBS DNA site
Over roughly 81,000 sequences, “one-hybrid fitness for binding NBS DNA” has its median near -0.1; the highest 2% begin near 0.36. The sample holds the highest values, similar sequences and a random draw of the others, so the mix is not that of the screen.
# one-hybrid fitness for binding NBS DNA annotations
measuredEndpoint: one-hybrid fitness for binding NBS DNA

- PHEL: ≤ 0.2
- RTTP: ≤ 0.2
- QVQR: 0.368
- THMK: ≤ 0.2
- QSDC: ≤ 0.2
- KRSF: ≤ 0.2
- RPLT: ≤ 0.2
- QRKH: 0.766
- QREC: 0.22
- RKRT: 0.676
- RKQH: ≤ 0.2
- RPTS: ≤ 0.2
- MFWL: ≤ 0.2
- NVDM: ≤ 0.2
- RSLT: 0.292
- RNDR: ≤ 0.2
- QVRD: ≤ 0.2
- PDRM: ≤ 0.2
- RLTH: ≤ 0.2
- AATY: ≤ 0.2
- QRVP: ≤ 0.2
- RKQP: ≤ 0.2
- RYTI: ≤ 0.2
- RRVH: 0.321
- RKCT: 0.583
- QPKH: ≤ 0.2
- RLTS: 0.396
- RATD: ≤ 0.2
- ETES: ≤ 0.2
- RTTS: 0.484
- LLCI: ≤ 0.2
- AYSK: ≤ 0.2
- QGMS: ≤ 0.2
- QSRC: 0.374
- NRHK: ≤ 0.2
- QRVH: 0.387
- QVYS: 0.202
- QRYC: 0.296
- QVNS: 0.377
- RYPE: ≤ 0.2
- DIYS: ≤ 0.2
- VYLC: ≤ 0.2
- QRVN: 0.259
- QCKD: 0.337
- QVND: ≤ 0.2
- LRKL: ≤ 0.2

# credit: a collection of fitness landscapes (doi:10.1016/j.celrep.2020.107928)
